For reference, the following IC50 results for Steroid 17-alpha-hydroxylase/17,20 lyase (Rattus norvegicus) were taken from various sources.

Sample answers from the record:
[[record]]
compound = "CCC(O)(c1ccncc1)c1cnc(-c2cn[nH]c2)s1 (single isomer, unassigned; (+))"
endpoint_name = "IC50"
measured_value = "201 to 10000 nM"

[[record]]
compound = "COc1ccc(-c2ccc(C(C)n3ccnc3)s2)cn1 (stereo not drawn)"
endpoint_name = "IC50"
measured_value = "< 50 nM"

[[record]]
compound = "CCC(c1cnc(-c2ccc(OC)cc2)s1)n1ccnc1 (stereo not drawn)"
endpoint_name = "IC50"
measured_value = "< 50 nM"


Requested read-out: IC50. Entry: CCC(c1ccc(-c2ccccc2C#N)cn1)n1ccnc1 (stereo not drawn)
< 50 nM

Query (compound): CC(O)(c1ccncc1)c1cnc(-c2ccccc2)s1 (stereo not drawn) ; field requested: IC50
< 50 nM

Report IC50 for CC(=O)NC(C)(c1ccncc1)c1cnc(-c2ccc(F)cc2)s1 (stereo not drawn) please.
50 to 200 nM

Request the reported IC50 associated with CCC(c1ccc(-c2cccc(F)c2)cn1)n1ccnc1 (stereo not drawn)
< 50 nM

What value of IC50 has been reported for the following compound? CC(C)C(O)(c1ccncn1)c1ccc2c(C(F)(F)F)c(Cl)ccc2n1 (stereo not drawn)
1750 nM

# get_value(readout='IC50', item= COc1cc2cnc(C(O)(c3c[nH]nn3)C(C)C)cc2cc1OC (stereo not drawn) )
960 nM
